molecular target: CDK4/cyclin D1 (Homo sapiens (Human)); assay: CDK4/cyclin D1 enzymatic activity assay (TR-FRET, phosphorylation of pRb at Ser780); format: biochemical; conditions: 0.3 nM CDK4/cyclin D1, 150 nM biotin-pRb (773-924), 3 μM ATP, 60 min at 22° C.; read-out: Biochemical CDK4 enzyme IC50
Sequence (P11802 whole entry): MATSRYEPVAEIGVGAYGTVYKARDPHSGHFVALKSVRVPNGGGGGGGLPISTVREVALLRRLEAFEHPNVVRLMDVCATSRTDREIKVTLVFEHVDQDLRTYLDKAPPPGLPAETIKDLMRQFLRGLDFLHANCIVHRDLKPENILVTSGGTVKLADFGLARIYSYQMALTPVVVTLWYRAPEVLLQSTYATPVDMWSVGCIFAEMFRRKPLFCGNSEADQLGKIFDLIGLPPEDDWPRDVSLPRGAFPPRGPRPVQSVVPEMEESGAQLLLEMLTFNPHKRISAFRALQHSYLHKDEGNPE
Sequence (P24385 whole entry partner): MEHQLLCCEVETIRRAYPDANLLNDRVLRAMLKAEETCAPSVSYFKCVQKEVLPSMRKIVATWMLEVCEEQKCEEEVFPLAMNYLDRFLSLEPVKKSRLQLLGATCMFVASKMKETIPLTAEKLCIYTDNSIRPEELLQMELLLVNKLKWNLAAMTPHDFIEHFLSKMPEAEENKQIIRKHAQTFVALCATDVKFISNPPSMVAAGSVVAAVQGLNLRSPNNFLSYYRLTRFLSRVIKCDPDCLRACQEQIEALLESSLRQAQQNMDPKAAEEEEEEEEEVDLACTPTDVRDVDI
// classify: if (IC50 < 20 nM) Y else N

CN(C)C(=O)c1cc2cnc(Nc3ccc(C(=O)N4C[C@@H]5[C@@H](N)[C@@H]5C4)cn3)nc2n1C1CCCC1 [Example 42] : Y
CN(C)C(=O)c1cc2cnc(Nc3ccc(N4C[C@@H]5CC[C@H](CC4=O)N5)cn3)nc2n1C1CCCC1 [Example 124] : N
CN(C)C(=O)c1cc2cnc(Nc3ccc(N4CC5(CC4=O)CC4CCC(C5)N4)cn3)nc2n1C1CCCOC1 (stereo not shown) [Example 120] : N
CN(C)C(=O)c1cc2cnc(Nc3ccc(C(=O)N4CC5CCC(C4)C5(C)O)cn3)nc2n1C1CCCCCC1 (stereo not shown) [Example 6] : N
CN(C)C(=O)c1cc2cnc(Nc3ccc(C(=O)N4CC5CC(C4)N(C)C5)cn3)nc2n1C1CCCC1 (stereo not shown) [Example 13] : Y
CSCC[C@@H](N)C(=O)N1C2CCC1CN(C(=O)c1ccc(Nc3ncc4cc(C(=O)N(C)C)n(C5CCCC5)c4n3)nc1)C2 [Example 59] : Y

Then there is this compound:
Incoming: Strictly below 20 nM in IC50? Cc1nc(Nc2ncc3cc(C(=O)N(C)C)n(C4CCCC4)c3n2)ccc1C(=O)N1CC2CCC(C1)N2 [Example 50]
Outgoing: N
